# target.system: T1, human LRP5 domains E3-E4 (E644-Q1263 of SEQ ID NO: 42) (human, UniProt O75197 644-1263)
# T1 construct: Soluble fragment made in-house; It was biotinylated for phage sorting; also called LRP5-E3/E4; LRP5E3/E4
# T1 sequence: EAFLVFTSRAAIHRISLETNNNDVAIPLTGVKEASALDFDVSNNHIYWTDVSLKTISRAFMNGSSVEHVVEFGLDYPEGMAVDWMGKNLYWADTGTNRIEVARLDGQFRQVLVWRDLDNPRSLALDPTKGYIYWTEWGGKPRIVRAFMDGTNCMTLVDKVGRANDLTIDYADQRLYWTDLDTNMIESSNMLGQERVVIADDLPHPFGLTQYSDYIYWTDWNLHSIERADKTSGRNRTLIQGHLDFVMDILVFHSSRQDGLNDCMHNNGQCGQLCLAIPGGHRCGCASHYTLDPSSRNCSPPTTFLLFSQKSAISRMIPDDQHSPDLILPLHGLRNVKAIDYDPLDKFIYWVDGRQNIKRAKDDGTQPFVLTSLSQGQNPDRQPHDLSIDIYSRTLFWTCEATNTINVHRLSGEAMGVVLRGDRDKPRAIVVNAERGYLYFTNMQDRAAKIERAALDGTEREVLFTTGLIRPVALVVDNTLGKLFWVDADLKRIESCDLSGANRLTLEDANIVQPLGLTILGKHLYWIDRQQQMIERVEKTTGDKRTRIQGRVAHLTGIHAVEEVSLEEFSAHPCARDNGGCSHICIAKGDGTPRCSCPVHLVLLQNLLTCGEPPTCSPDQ
# assay: SPR, BIAcore T100, IgG captured by anti-human Fc, LRP5E3/E4 as analyte, 25 C
metric.name: kon (M⁻¹ s⁻¹)

1. YW629.42.58 (antibody, human IgG1, V domains shown, also called P6C.42.58) VH: EVQLVESGGGLVQPGGSLRLSCAASGFTFSSYAMSWVRQAPGKGLEWVGAISSPGWSTYYADSVKGRFTISRDNSKNTLYLQMNSLRAEDTAVYYCARYYRYAPYRSLGMDVWGQGTLVTVSS VL: DIQMTQSPSSLSASVGDRVTITCRASQGISSYLAWYQQKPGKAPKLLIYAASSLQSGVPSRFSGSGSGTDFTLTISSLQPEDFATYYCQQYYSYPFTFGQGTKVEIKR :: 31300
2. YW629.51.63 (antibody, human IgG1, V domains shown, also called P6C.51.63) VH: EVQLVESGGGLVQPGGSLRLSCAASGFTFSSYAMHWVRQAPGKGLEWVSRISSNGGSTYYADSVKGRFTISRDNSKNTLYLQMNSLRAEDTAVYYCARWIPQSYPFASYKSGFDYWGQGTLVTVSS VL: DIQMTQSPSSLSASVGDRVTITCRASQSIYYYLAWYQQKPGKAPKLLIYDASSLESGVPSRFSGSGSGTDFTLTISSLQPEDFATYYCQQYYSYPFTFGQGTKVEIKR :: 337000
3. YW629.51.61 (antibody, human IgG1, V domains shown, also called P6C.51.61; PC6.51.61) VH: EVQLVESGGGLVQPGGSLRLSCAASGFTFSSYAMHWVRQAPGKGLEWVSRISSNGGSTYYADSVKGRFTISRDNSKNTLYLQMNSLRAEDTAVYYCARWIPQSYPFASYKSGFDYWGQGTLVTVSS VL: DIQMTQSPSSLSASVGDRVTITCRASQVMGYYLAWYQQKPGKAPKLLIYDASSLESGVPSRFSGSGSGTDFTLTISSLQPEDFATYYCQQYYSYPFTFGQGTKVEIKR :: 244000
4. YW629.51 (antibody, human IgG1, V domains shown, also called P6C.51; bivalent LRP5 antibody (P6C.51)) VH: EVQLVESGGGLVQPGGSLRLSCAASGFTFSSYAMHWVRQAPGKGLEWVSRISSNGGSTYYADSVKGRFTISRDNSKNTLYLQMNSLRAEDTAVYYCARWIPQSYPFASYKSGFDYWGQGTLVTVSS VL: DIQMTQSPSSLSASVGDRVTITCRASQGISSYLAWYQQKPGKAPKLLIYDASSLESGVPSRFSGSGSGTDFTLTISSLQPEDFATYYCQQYYSYPFTFGQGTKVEIKR :: 237000
5. YW629.42.57 (antibody, human IgG1, V domains shown, also called P6C.42.57) VH: EVQLVESGGGLVQPGGSLRLSCAASGFTFSSYAMSWVRQAPGKGLEWVGAISAPGSSTYYADSVKGRFTISRDNSKNTLYLQMNSLRAEDTAVYYCARYYRYAPYRSLGMDVWGQGTLVTVSS VL: DIQMTQSPSSLSASVGDRVTITCRASQGISSYLAWYQQKPGKAPKLLIYAASSLQSGVPSRFSGSGSGTDFTLTISSLQPEDFATYYCQQYYSYPFTFGQGTKVEIKR :: 30100
